System: CAKI-1 renal
experiment: NCI-60 one-dose screen, 48 h (100 = growth as untreated, 0 = no growth, -100 = all killed)
condition: 10 µM unless noted
Compounds without any hit were thinned out: in the full panel of roughly 83,000, 20% have a hit. The source made the active and inactive calls. How the source made its calls: active means growth percent below 10; inactive means the rest.
Reported values of growth for individual entries

What does the record list as growth for "O=C1C=CC(=Nc2cc(Br)c(O)c(Br)c2)C=C1" ?
82.8% (inactive)

----------
Tested on: NCI-H460 lung
experiment: NCI-60 one-dose screen, 48 h (100 = growth as untreated, 0 = no growth, -100 = all killed)
condition: 10 µM unless noted
The panel holds about 83,000 compounds, 20% with a hit somewhere; the sample as a whole holds those more often.
readout.type: growth (%)
Enter your answer as a number in %; do not include the unit.

Use the examples below as a reference point.
In [3]: df
Out[3]:
                                   molecule  readout_type  result_unit  meas_value
0                     Cn1ccc(Cc2cnc(N)s2)n1        growth            %         106
1         Cc1cc(-c2ccccc2)cc(SC#N)[n+]1[O-]        growth            %          19
2    CCOC(=O)c1ccc(-c2ccc3cc(OC)ccc3c2)nc1C        growth            %         103
3  c1ccc2c(c1)ncn2-c1nc2ccccc2n2c1nc1ccccc12        growth            %        52.1
4                            CC(=O)Nc1nccs1        growth            %        98.8

What does the record list as growth for "CCn1c(Sc2nnc(NC(C)=O)s2)nc2c1c(=O)n(C)c(=O)n2C" ?
103

What does the record list as growth for O=C1C(Cl)C(c2ccccc2Cl)N1n1cnnc1 (stereo unspecified) ?
101

What does the record list as growth for CCOc1cc(C2C(Cl)C(=O)N2n2cnnc2)ccc1O (stereo unspecified) ?
104

What does the record list as growth for "N#Cc1c(N)n2c(nc1=Nc1ccc(Cl)cc1)sc1cc(Cl)ccc12" ?
95.1

What does the record list as growth for "CCc1nc2ccccc2[nH]1" ?
102

What does the record list as growth for COc1ccc(C2CC(c3ccc4ccccc4c3)=NN2c2nc(O)c(C3=c4cc(Cl)ccc4=NC3=O)s2)cc1 (stereo unspecified) ?
-20

What does the record list as growth for "Cc1ccc(S(=O)(=O)NN/C(N)=N\S(=O)(=O)c2cc(C)c(Cl)cc2SCc2ccccc2)cc1" ?
110

What does the record list as growth for "COc1cc(/C=C/C(=O)c2cccc(-n3cc(-c4ccc(Cl)cc4)[nH]c3=O)c2)cc(OC)c1OC" ?
54.7

What does the record list as growth for "CC(=O)Nc1ccc2c(c1)Cc1c(F)cccc1-2" ?
92.2

What does the record list as growth for "COc1ccccc1C(=O)NC(=S)Nc1ccc(-c2nc3ccccc3[nH]2)cc1" ?
4.59

What does the record list as growth for Cc1nn(-c2ccccc2)c2c1C(c1ccc([N+](=O)[O-])cc1)C(C#N)=C(N)O2 (stereo unspecified) ?
108

----------
System: OVCAR-3 ovarian
experiment: NCI-60 one-dose screen, 48 h
condition: 10 µM unless noted
This is part of a sample that, as a whole, favours compounds with a hit. Of some 83,000 tested, about 20% had one in any assay. Active and inactive are the calls of the source. Rule for the calls: active = growth percent below 10; inactive = the rest.
Valid outcomes are listed here; reply with one: t for active, f for inactive

Here are 3 compounds together with their reported answers.
compound	class.name
O=C1Nc2ccc(Cl)cc2/C1=N/N=C/c1c[nH]c2ccccc12	f
COc1cc(C(=O)/C=C/c2c(C(F)(F)F)nc3ccccn23)cc(OC)c1OC	t
CCc1cc(Cc2cc(CC)cc(C(C)(C)C)c2O)c(O)c(C(C)(C)C)c1	f

Please state the recorded outcome for this compound: "O=C(Nc1ccccc1Cl)OCCN1CCOCC1"
f

Please state the recorded outcome for this compound: C=C1c2c(C)nn(-c3ccc(NC(C)=O)cc3)c2N(C)C23CC1C1(C)c4c(C)nn(-c5ccc(NC(C)=O)cc5)c4N(C)C(C)(CC12)C3 (stereo not given)
f

Values compiled from PubChem BioAssay (NCI).
